biological target: T1, rat NK1 receptor (rat, UniProt P14600 1-407); test: competition vs [3H]Substance P, rNK1 CHO cell membranes
T1 construct: whole, on cells; membrane preparations of the transfected cells were used; also called rNK1; rNK-1
T1 sequence (P14600 whole entry): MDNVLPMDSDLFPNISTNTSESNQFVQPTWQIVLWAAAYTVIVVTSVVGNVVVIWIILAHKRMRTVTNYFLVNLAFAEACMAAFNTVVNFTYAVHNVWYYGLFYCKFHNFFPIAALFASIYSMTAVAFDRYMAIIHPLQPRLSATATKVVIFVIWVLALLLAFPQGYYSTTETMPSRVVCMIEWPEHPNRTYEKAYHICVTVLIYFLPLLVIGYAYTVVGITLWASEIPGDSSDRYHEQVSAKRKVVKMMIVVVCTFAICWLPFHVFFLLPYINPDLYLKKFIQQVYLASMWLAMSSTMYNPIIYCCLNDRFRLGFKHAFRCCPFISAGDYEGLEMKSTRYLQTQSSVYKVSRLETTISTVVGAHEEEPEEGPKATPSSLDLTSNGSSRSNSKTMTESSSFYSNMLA
Square brackets hold non-standard residues; d marks the D form. Ends that are not written are not given here. * marks the point of attachment. NH(3,5-(CF3)2-benzyl) = FC(F)(F)c1cc(CN*)cc(C(F)(F)F)c1; Dmt = Cc1cc(O)cc(C)c1C[C@H](N)C(=O)O
result.type: Ki (nM)
Give bare numbers, in nM.

Return reported Ki. Input binder: [Dmt][dA]GFMPLW-{NH(3,5-(CF3)2-benzyl)} (also called TY032) [DmtDAlaGlyPheMetProLeuTrpNHBn(CF3)2] 2.3
